- Tested on: LXFL 529
- assay-notes: NCI tumour cell line growth inhibition, 48 h
Calls of active or inactive are those of the source. Cut-off read from the data, not from the text of the source: active = GI50 up to about 1.1 µM and inactive = higher.
Listing: GI50 of selected compounds

Solved entries (count: 5):
- compound: "CCN(CC)C(=O)c1c(N2CCOCC2)cc(N(CC)CC)oc1=O"
  target-entity: "LXFL 529"
  GI50: "> 100 µM (inactive)"
- compound: "CCc1c(C#N)c(=O)[nH]c(=O)n1CCN1CCN(C(=O)NCCCCCCNC(=O)N2CCN(CCn3c(CC)c(C#N)c(=O)[nH]c3=O)CC2)CC1"
  target-entity: "LXFL 529"
  GI50: "> 100 µM (inactive)"
- compound: "O=C(CSc1nnc(-c2ccc(/N=C\\c3ccc(Cl)cc3)cc2)o1)Nc1cccc([N+](=O)[O-])c1"
  target-entity: "LXFL 529"
  GI50: "> 100 µM (inactive)"
- compound: "Nc1c(C(=O)Nc2ccccc2O)[n+]([O-])c2ccccc2[n+]1[O-]"
  target-entity: "LXFL 529"
  GI50: "> 100 µM (inactive)"
- compound: "CCOC(=O)C(C(C)=O)C1CC=CC1 (configuration not stated)"
  target-entity: "LXFL 529"
  GI50: "> 100 µM (inactive)"

Now look at this one.
Request: Any idea what GI50 was measured for COC1C(=[N+]=[N-])C(=O)NC(=O)N1C1OC(COC(c2ccccc2)(c2ccccc2)c2ccccc2)C(O)C1O (configuration not stated) ?
Result: 17.6 µM (inactive)

====

- Tested on: DU-145
- assay-notes: NCI tumour cell line growth inhibition, 48 h
The source made the active and inactive calls. Cut-off read from the data, not from the text of the source: active = GI50 up to about 1.1 µM and inactive = higher.
parameter-measured: GI50

Request: GI50 lookup needed for O=C1C=CC(=O)C1(Br)Br , thanks.
Result: 16 µM (inactive)

Request: Tell me the measured GI50 of O=S(=O)(c1cccc(C(F)(F)F)c1)N1c2ccccc2-n2cccc2C1c1cccnc1 (stereo not given) , please.
Result: > 39.7 µM (inactive)

Request: # lookup: GI50 of C=CCOC(=O)N1c2ccc(O)cc2[C@@]23O[C@@]24[C@@H]1C#C/C=C\C#C[C@]3(O)C(=O)C[C@@H]4C
Result: > 100 µM (inactive)

Request: What GI50 value was documented for this compound, CCCCCCOC(=O)/C=C/[C@]1(CO)C/C(=C/CC(C(C)C)C(C)C)C(=O)O1 ?
Result: 18.2 µM (inactive)

Request: For OC(CC(CC(O)(C(F)(F)Cl)C(F)(F)Cl)=NNc1ccccc1)(C(F)(F)Cl)C(F)(F)Cl , what is its reported GI50?
Result: 3.3 µM (inactive)

====

- System: RPMI-8226
- assay-notes: NCI tumour cell line growth inhibition, 48 h
The source made the active and inactive calls. Rule as the data show it: active = GI50 up to about 1.1 µM and inactive = higher.
Respond with a class label; see label 1 = active, label 0 = inactive

Some solved entries appear below for comparison.
- compound: "Cc1c(C(=O)C/C(=N/NC(=O)C[N+](C)(C)C)C(=O)Nc2ccc(Cl)cc2)[n+]([O-])c2ccccc2[n+]1[O-]"
  assigned-class: "label 0"
- compound: "O=C(CCc1ccc(O)c(O)c1)NCCc1cc(OCc2ccccc2)cc(OCc2ccccc2)c1"
  assigned-class: "label 0"
- compound: "O=C1CN(c2cccc(Cl)c2)C(=O)CN1CCN1CC(=O)N(c2cccc(Cl)c2)CC1=O"
  assigned-class: "label 0"
- compound: "CC(=O)CC(=O)Nc1ccccc1C(F)(F)F"
  assigned-class: "label 0"
- compound: "COc1cc2c(cc1OCCCN1CCN(C)CC1)N=C[C@@H]1CCCN1C2=O"
  assigned-class: "label 1"

Request: Dear colleague, could you share the recorded outcome for COc1cc(C(O)c2ccc3c(c2)OCO3)cc(OC)c1OC (stereo not given) when you have a moment?
Result: label 0

Request: For this compound, state the assay outcome: O=C1N(c2ccc(Cl)cc2)C(=O)C2(SC=NN2Cc2ccccc2)N1c1ccc(Cl)cc1 (stereo not given)
Result: label 0

Request: Please indicate how the test categorized CC(C)/C(Cl)=N/OC(NC(=O)Nc1ccc(Cl)c(Cl)c1)(C(F)(F)F)C(F)(F)F .
Result: label 0

Request: What was the test verdict on Nc1nc(N)c2ncn(Cc3ccccc3)c2n1 ?
Result: label 0

====

GI50 for assorted compounds
- Tested on: UACC-257
- assay-notes: NCI tumour cell line growth inhibition, 48 h
Active and inactive are the calls of the source. Rule as the data show it: active = GI50 up to about 1.1 µM and inactive = higher.

- compound: "COc1ccc(/N=N/c2c(C)c(C#N)c(=S)n(C3OC(CO)C(O)C(O)C3O)c2-c2ccccc2)cc1 (centres undefined)"
  target-entity: "UACC-257"
  GI50: "48.8 µM (inactive)"
- compound: "O=C(Nc1ccccc1)OCc1nc2c([nH]1)C(=O)C=CC2=O"
  target-entity: "UACC-257"
  GI50: "3.42 µM (inactive)"
- compound: "O=C1C=CC(=O)C1(Br)Br"
  target-entity: "UACC-257"
  GI50: "16.1 µM (inactive)"

Please examine the following record next.
Request: // lookup GI50 | system=UACC-257 | key= COc1ccc(N[S+]([O-])c2ccc(Cl)cc2)cc1 (centres undefined)
Result: 17.9 µM (inactive)

====

HCT-15 data, read-out GI50

Study these solved cases before continuing.
- compound: "Cc1ccc(C(=O)CCC2C(=O)CC(C)(C)CC2=O)cc1"
  target-entity: "HCT-15"
  test-result: "> 100 µM"
- compound: "CCc1n[nH]c(=O)n1NC(=O)/C=C\\C(=O)O"
  target-entity: "HCT-15"
  test-result: "> 100 µM"
- compound: "CCCCOC(=O)c1cc(C(=CCC[C@H]2CC[C@@]3(C)[C@@H](CC[C@@H]4[C@@H]3CC[C@]3(C)[C@@H](C(C)CCCC(C)C)CC[C@@H]43)C2)c2cc(Cl)c(O)c(C(=O)OCCCC)c2)cc(Cl)c1O (some centres undefined)"
  target-entity: "HCT-15"
  test-result: "> 50 µM"
- compound: "Nc1nc(N)c2ncn(Cc3ccccc3)c2n1"
  target-entity: "HCT-15"
  test-result: "> 100 µM"
- compound: "O=C1Nc2ccccc2/C1=N/NC(=S)Nc1ccc([N+](=O)[O-])cc1"
  target-entity: "HCT-15"
  test-result: "2.33 µM"
- compound: "Cc1csc(NNC(=O)Nc2ccccc2)n1"
  target-entity: "HCT-15"
  test-result: "> 100 µM"

Request: Name the recorded GI50 for CCCCCCOC(=O)/C=C/[C@]1(CO)C/C(=C/CC(C(C)C)C(C)C)C(=O)O1 .
Result: 14.6 µM

Request: Look at this compound and give its reported GI50. COc1cc2c(cc1OCCCN1CCN(C)CC1)N=C[C@@H]1CCCN1C2=O
Result: 2.25 µM

Request: Requested field: GI50. Item: COC1=C(OC)C(=O)C(Cc2c(C)nc3sccn23)=C(C)C1=O
Result: 16.5 µM

====

- Tested on: DU-145
- assay-notes: NCI tumour cell line growth inhibition, 48 h
Active and inactive are the calls of the source. Cut-off read from the data, not from the text of the source: active = GI50 up to about 1.1 µM and inactive = higher.
GI50: recorded values

Example entries and their recorded answers appear below.
- compound: "c1ccc2c(c1)-c1ccccc1C2NC1=NCCO1"
  GI50: "52.6 µM (inactive)"
- compound: "Cc1ccc(S(=O)(=O)Oc2coc(CO)cc2=O)cc1"
  GI50: "12.2 µM (inactive)"
- compound: "COc1ccc(N[S+]([O-])CCCc2ccccc2)cc1 (stereo unspecified)"
  GI50: "> 100 µM (inactive)"
- compound: "Cc1cc(O)c2c(=O)c3ccccc3[nH]c2c1"
  GI50: "35.2 µM (inactive)"
- compound: "CSc1c(C#N)c(S)[nH]c(=O)c1C#N"
  GI50: "48 µM (inactive)"

// next entry
Request: Please look up its GI50: O=C1Cc2c(-c3ccccc3)cc(-c3ccccc3)nc2-c2ccccc2N1
Result: 5.82 µM (inactive)

====

- Tested on: BT-549
- assay-notes: NCI tumour cell line growth inhibition, 48 h
Active and inactive are the calls of the source. Cut-off read from the data, not from the text of the source: active = GI50 up to about 1.1 µM and inactive = higher.
parameter-measured: GI50

Solved cases below.
- compound: "COc1ccc(/C=C(\\Cl)c2ccc(OC)c(OC)c2)cc1OC"
  target-entity: "BT-549"
  GI50: "> 100 µM (inactive)"
- compound: "CSc1c(C#N)c(S)[nH]c(=O)c1C#N"
  target-entity: "BT-549"
  GI50: "40.5 µM (inactive)"
- compound: "COCN1C(=O)[C@@H]2CCCN2C(=O)c2ccc(Cl)cc21"
  target-entity: "BT-549"
  GI50: "> 100 µM (inactive)"
- compound: "COc1ccc(NC=O)c(C(O)CCNC(C)=O)c1 (centres undefined)"
  target-entity: "BT-549"
  GI50: "> 100 µM (inactive)"
- compound: "CCOC(=O)/C(=C\\c1ccc(CO)o1)P(=O)(OCC)OCC"
  target-entity: "BT-549"
  GI50: "20.1 µM (inactive)"

Would you kindly look at the next entry?
Request: Which GI50 is reported for this compound? CO[C@]12S[C@@H]3CCCC[C@@]31C(C)(C)C(=O)N2c1ccccc1
Result: 27.4 µM (inactive)
